Target: Urotensin-2 receptor (Homo sapiens, UniProt Q9UKP6)
Sequence (Q9UKP6 whole entry): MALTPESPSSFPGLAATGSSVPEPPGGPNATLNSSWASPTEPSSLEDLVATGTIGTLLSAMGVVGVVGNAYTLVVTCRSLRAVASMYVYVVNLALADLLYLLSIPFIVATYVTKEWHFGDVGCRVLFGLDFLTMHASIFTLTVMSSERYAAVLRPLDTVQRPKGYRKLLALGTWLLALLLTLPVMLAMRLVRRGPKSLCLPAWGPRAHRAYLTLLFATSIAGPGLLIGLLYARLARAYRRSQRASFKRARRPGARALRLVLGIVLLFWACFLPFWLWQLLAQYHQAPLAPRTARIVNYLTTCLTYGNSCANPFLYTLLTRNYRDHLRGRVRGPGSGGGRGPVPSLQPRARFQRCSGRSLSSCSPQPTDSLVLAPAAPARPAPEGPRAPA
Test: Mobilization of intracellular calcium in CHO cells transiently transfected with human Urotensin 2 receptor
Format: functional, cell-based
Residues, ends and D or L forms follow the SMILES beside them.
Experimental readout: log10 EC50 (log10 of the value in nM)

{"columns": ["Compound", "log10 EC50"],
 "data": [
  ["CC(C)[C@H](NC(=O)[C@H](CS)NC(=O)[C@H](Cc1ccc(O)cc1)NC(=O)[C@H](CCCCN)NC(=O)[C@H](Cc1c[nH]c2ccccc12)NC(=O)[C@H](Cc1ccccc1)NC(=O)[C@H](C)NC(=O)[C@H](CC(=O)O)NC(=O)[C@@H]1CCCN1C(=O)[C@@H](NC(=O)[C@@H](N)CCC(=O)O)[C@@H](C)O)C(=O)O", 2.37],
  ["CC(C)[C@H](NC(=O)[C@H](CS)NC(=O)[C@H](Cc1ccc(O)cc1)NC(=O)[C@H](CCCCN)NC(=O)[C@H](Cc1c[nH]c2ccccc12)NC(=O)[C@H](Cc1ccccc1)NC(=O)[C@H](CS)NC(=O)[C@@H](N)CC(=O)O)C(=O)O (H-DCFWKYCV-OH)", 0.48],
  ["CC(C)[C@H](NC(=O)[C@H](CS)NC(=O)[C@H](Cc1ccc(O)cc1)NC(=O)[C@H](CCCCN)NC(=O)[C@H](Cc1c[nH]c2ccccc12)NC(=O)[C@H](Cc1ccccc1)NC(=O)[C@H](CS)NC(=O)[C@H](CC(=O)O)NC(=O)[C@@H]1CCCN1C(=O)[C@H](C)NC(=O)[C@@H](N)CCC(=O)O)C(=O)O", 0.52],
  ["CC(C)[C@H](NC(=O)[C@H](CS)NC(=O)[C@H](Cc1ccc(O)cc1)NC(=O)[C@H](CCCCN)NC(=O)[C@H](Cc1c[nH]c2ccccc12)NC(=O)[C@H](Cc1ccccc1)NC(=O)[C@H](CS)NC(=O)[C@H](CC(=O)O)NC(=O)[C@H](C)NC(=O)[C@@H](NC(=O)[C@@H](N)CCC(=O)O)[C@@H](C)O)C(=O)O (H-ETADCFWKYCV-OH)", 0.28],
  ["CC(C)[C@H](NC(=O)[C@H](CS)NC(=O)[C@H](Cc1ccc(O)cc1)NC(=O)[C@H](CCCCN)NC(=O)[C@H](Cc1c[nH]c2ccccc12)NC(=O)[C@H](Cc1ccccc1)NC(=O)[C@H](CS)NC(=O)[C@H](CC(=O)O)NC(=O)[C@@H]1CCCN1C(=O)[C@@H](NC(=O)[C@H](C)N)[C@@H](C)O)C(=O)O", 0.26],
  ["CC(C)[C@H](NC(=O)[C@H](CS)NC(=O)[C@H](Cc1ccc(O)cc1)NC(=O)[C@H](CCCCN)NC(=O)[C@H](Cc1c[nH]c2ccccc12)NC(=O)[C@H](Cc1ccccc1)NC(=O)[C@H](CS)NC(=O)[C@H](C)NC(=O)[C@@H]1CCCN1C(=O)[C@@H](NC(=O)[C@@H](N)CCC(=O)O)[C@@H](C)O)C(=O)O", 0.43],
  ["NCCCC[C@H](NC(=O)[C@H](Cc1c[nH]c2ccccc12)NC(=O)[C@H](Cc1ccccc1)NC(=O)[C@@H](N)CS)C(=O)N[C@@H](Cc1ccc(O)cc1)C(=O)N[C@@H](CS)C(N)=O (H-CFWKYC-NH2)", 0.36],
  ["CC(C)[C@H](NC(=O)[C@H](CS)NC(=O)[C@H](Cc1ccc(O)cc1)NC(=O)[C@H](CCCCN)NC(=O)[C@H](Cc1c[nH]c2ccccc12)NC(=O)[C@H](Cc1ccccc1)NC(=O)[C@@H](N)CS)C(=O)O (H-CFWKYCV-OH)", 0.26]
]}

// provenance: ChEMBL document CHEMBL1135930
